Taken from ChEMBL document CHEMBL5096205.

// reported IC50 per item
- MEASURED_TARGET: UniProt:Q96CA5
- Sequence (Q96CA5 whole entry, the tested form may be a part): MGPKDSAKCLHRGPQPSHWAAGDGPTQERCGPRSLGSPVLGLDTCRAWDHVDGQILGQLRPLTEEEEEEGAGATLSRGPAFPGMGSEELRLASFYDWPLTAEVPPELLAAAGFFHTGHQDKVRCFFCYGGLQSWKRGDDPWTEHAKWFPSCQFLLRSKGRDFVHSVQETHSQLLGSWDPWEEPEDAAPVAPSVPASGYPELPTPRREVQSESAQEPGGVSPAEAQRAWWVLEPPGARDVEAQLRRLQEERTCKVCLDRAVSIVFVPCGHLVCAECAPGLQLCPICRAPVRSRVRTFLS
- PROCEDURE_TEXT: Antagonist activity at N-terminal His-tagged wild type ML-IAP BIR domain (63 to 179 residues) (unknown origin) expressed in Escherichia coli BL21 using AVPIAQKSEK-biotinylated peptide as substrate incubated for 2 hrs by DELFIA assay

| COMPOUND | QUANTITY_MEASURED | EXPERIMENTAL_RESULT |
| --- | --- | --- |
| CN[C@@H](C)C(=O)N[C@@H](CNC(=O)c1cccc(S(=O)(=O)F)c1)C(=O)N1CCC[C@H]1C(=O)NC1Cc2ccccc2C1 | IC50 | > 1000 nM |

--- query ---
Ask: Requested read-out: IC50. Entry: CN[C@@H](C)C(=O)N[C@H](C(=O)N1CCC[C@H]1c1nc(C(=O)c2ccc(F)cc2)cs1)C1CCCCC1 [LCL-161]
Reply: 9 nM
